In this section we review reported sensor-assay potency score (higher = more potent) values for a set of sequences.
- assayed.target: SDR9C7
- assay.method.text: pooled miR-30 sensor sort-seq; sequence = guide strand; note: reference of the scale not given here
- cond: shRNA
readout: sensor-assay potency score (higher = more potent)

INSERT INTO assay_data (chain_sequence, recorded_result) VALUES
  ('TTGCAGTTCTTGAACCAGCGAT', -0.518),
  ('TTGCCGAGAATGGCTGTCCGAT', -0.982),
  ('TTAGGATGAAATCTGTCACAGG', -0.552),
  ('AACTTGTCAGTATAGATGCGGA', -0.682),
  ('TAACTTGTCAGTATAGATGCGG', -0.0735),
  ('TTGATGCTTTCGCTCTTGGTGA', -1.21),
  ('ATGCTGTTGATGACATCTCTGA', -0.812);

###

In this section we review reported sensor-assay potency score (higher = more potent) values for a set of sequences.
- assayed.target: NOL7
- assay.method.text: pooled miR-30 sensor sort-seq; sequence = guide strand
- cond: shRNA
readout: sensor-assay potency score (higher = more potent)

INSERT INTO assay_data (chain_sequence, recorded_result) VALUES
  ('TTTTTGTACTTTAACTTTCTTG', -0.529),
  ('TTTTGTACTTTAACTTTCTTGG', -0.17),
  ('TTAACTTCTTTCACCTTTCCTG', -0.368),
  ('TGTACTTTAACTTTCTTGGAGT', -0.613),
  ('TTCGATGAACAGCTCCTCGCGT', -0.6),
  ('TTATTTACAGTAGTCCTGTTGG', -0.0686);

###

In this section we review reported sensor-assay potency score (higher = more potent) values for a set of sequences.
- assayed.target: PEAR1
- assay.method.text: pooled miR-30 sensor sort-seq; sequence = guide strand
- cond: shRNA
readout: sensor-assay potency score (higher = more potent)

INSERT INTO measurements (chain_sequence, recorded_result) VALUES
  ('TTTCACATGAGCAGCGTGCAGA', -0.314),
  ('TTGCCTTTTTGCCAGTGCCGAT', -1.65),
  ('TTGCTGTAGCTATAGCTGTAGC', -1.31),
  ('TAGCTATAGCTGTAGCTTCGGT', -1.04),
  ('TAGTAGTGACTGTAGCTCGGAG', -0.228),
  ('TATAGCTGTAGCTTCGGTCCAG', 0.0436),
  ('TTCATCTCCATGTAGCTGCTCT', 0.0491);

###

In this section we review reported sensor-assay potency score (higher = more potent) values for a set of sequences.
- assayed.target: GRSF1
- assay.method.text: pooled miR-30 sensor sort-seq; sequence = guide strand
- cond: shRNA
readout: sensor-assay potency score (higher = more potent)

INSERT INTO assay_data (chain_sequence, recorded_result) VALUES
  ('TTCATGTTCTTCAAAGACCATT', -0.97),
  ('TTTCTTCTTCTAAACAGTCCAC', -0.0512),
  ('TTCTTCTAAACAGTCCACTATG', -0.687),
  ('TAGCAGTAGGAAAAGATGCGAT', -0.689),
  ('TCGATTACCAATTTCTTCCCTG', -0.139),
  ('TAAGGCTTTCTGCACATCCTGC', -0.572),
  ('TTGAGCATCGCTGCAACAGCAT', -0.486);
